Target: T1, human programmed cell death protein 1 (hPD-1) C93S (aa 24-167) (Homo sapiens, UniProt Q15116, C93S)
T1 construct: made as a fusion with a TEV site and human Fc; the Fc was cut off with TEV protease; source: Expi293F, purified (Protein A, TEV cleavage of Fc, SEC; monomer fractions); not shown: Fc (human), C-terminal, cleaved
T1 sequence (Q15116 24-167 C93S): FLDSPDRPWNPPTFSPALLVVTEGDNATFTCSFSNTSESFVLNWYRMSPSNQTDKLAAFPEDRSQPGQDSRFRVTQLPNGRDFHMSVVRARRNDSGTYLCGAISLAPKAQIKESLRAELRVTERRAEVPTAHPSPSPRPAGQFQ
Assay: SPR; Carterra LSA; Fab from the ammonium sulfate precipitate of the culture supernatant immobilised on a NiHC200M chip; hPD-1 (1-1024 nM) or mPD-1-Fc (4-1024 nM) as analyte, fourfold dilution series, no regeneration; HBS-EP pH 7.4, 25 °C; medians over the spots of a construct, KD = koff/kon
Conditions: one partner purified
quantity: kon (M⁻¹ s⁻¹)

1) toripalimab Fab L.L101Y (Fab, V domains shown, as the heavy chain of Sm3; light chain of Sm3 with this change; numbers count from the chain's first residue; source: Brevibacillus, culture supernatant (ammonium sulfate precipitate); not shown: 6xHis, C-terminal, kept; 6xHN, C-terminal, kept) VH: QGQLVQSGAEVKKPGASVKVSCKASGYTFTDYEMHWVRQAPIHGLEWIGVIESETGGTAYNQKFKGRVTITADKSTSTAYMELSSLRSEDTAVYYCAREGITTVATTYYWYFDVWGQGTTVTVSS VL: DVVMTQSPLSLPVTLGQPASISCRSSQSIVHSNGNTYLEWYLQKPGQSPQLLIYKVSNRFSGVPDRFSGSGSGTDFTLKISRVEAEDVGVYYCFQGSHVPYTFGQGTKLEIK
8500
2) toripalimab Fab H.F112A (Fab, V domains shown, heavy chain of Sm3 with this change; numbers count from the chain's first residue; as the light chain of Sm3; source: Brevibacillus, culture supernatant (ammonium sulfate precipitate); not shown: 6xHis, C-terminal, kept; 6xHN, C-terminal, kept) VH: QGQLVQSGAEVKKPGASVKVSCKASGYTFTDYEMHWVRQAPIHGLEWIGVIESETGGTAYNQKFKGRVTITADKSTSTAYMELSSLRSEDTAVYYCAREGITTVATTYYWYADVWGQGTTVTVSS VL: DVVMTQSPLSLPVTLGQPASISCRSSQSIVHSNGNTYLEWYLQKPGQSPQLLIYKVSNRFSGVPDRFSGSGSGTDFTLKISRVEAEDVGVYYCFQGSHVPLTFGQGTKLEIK
4390
3) toripalimab Fab L.L101D (Fab, V domains shown, as the heavy chain of Sm3; light chain of Sm3 with this change; numbers count from the chain's first residue; source: Brevibacillus, culture supernatant (ammonium sulfate precipitate); not shown: 6xHis, C-terminal, kept; 6xHN, C-terminal, kept) VH: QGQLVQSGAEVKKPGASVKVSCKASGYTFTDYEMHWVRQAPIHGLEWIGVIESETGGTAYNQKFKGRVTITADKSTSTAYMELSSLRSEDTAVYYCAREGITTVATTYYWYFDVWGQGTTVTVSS VL: DVVMTQSPLSLPVTLGQPASISCRSSQSIVHSNGNTYLEWYLQKPGQSPQLLIYKVSNRFSGVPDRFSGSGSGTDFTLKISRVEAEDVGVYYCFQGSHVPDTFGQGTKLEIK
6020
